# Test system: U2OS
# assay-info: Multiplex assay against U2OS
# Assay type: toxicity, cell-based
# settings: human, 12 h, 1 µM, compound concentration 1 uM, replicate 2
observable: Population Hoechst High Intensity Objects (%)
Report the value in % with no unit label.

Would you please look over these solved cases?
- smiles-data: "C[C@H]1[C@H]2CC[C@H]3[C@@H]4CC=C5C[C@@H](N(C)C)CC[C@]5(C)[C@H]4CC[C@]23CN1C"
  scale-unit: "%"
  meas-value: 1
- smiles-data: "CCNC1(C(N)=O)CCN(c2ncnc3c2nc(-c2ccccc2Cl)n3-c2ccc(Cl)cc2)CC1"
  scale-unit: "%"
  meas-value: 2
- smiles-data: "CC1(COc2ccc3c(c2)ncn3-c2ccc3cccc(N4CCC(N)CC4)c3n2)COC1"
  scale-unit: "%"
  meas-value: 13

Exercise: What does the record list as Population Hoechst High Intensity Objects (%) for `CC(C)(C)c1ccc(S(=O)(=O)Nc2ccc(Cl)cc2C(=O)c2cc[n+]([O-])cc2)cc1` ?
Key: 0

Exercise: Endpoint output: Population Hoechst High Intensity Objects (%) of `C[C@@H]1C[C@H]2[C@@H]3CCC4=CC(=O)C=C[C@]4(C)[C@@]3(F)[C@@H](O)C[C@]2(C)[C@@]1(O)C(=O)CO` . Value?
Key: 0

Exercise: Which value of Population Hoechst High Intensity Objects (%) has been reported for `O=C(O)c1cc2ccccc2c(Cc2c(O)c(C(=O)O)cc3ccccc23)c1O` in the records?
Key: 0

Exercise: Please report the recorded Population Hoechst High Intensity Objects (%) for `COc1cc(NC(=O)CCN2CCC(OC(=O)Nc3ccccc3-c3ccccc3)CC2)c(Cl)cc1CNC[C@H](O)c1ccc(O)c2[nH]c(=O)ccc12` .
Key: 1

----------
# Tested on: U2OS
# assay-info: Multiplex assay against U2OS
# Format: toxicity, cell-based
# settings: human, 12 h, 1 µM, compound concentration 1 uM, replicate 1
So basically: Population Healthy Nuclei (%) at 70% or higher? That is rule met. Lower than 70%? That is rule not met.

A selection of reference data follows.
- molecule: "CCCC(CCC)C(=O)O"
  group: "rule not met"
- molecule: "Cl.Clc1ccc2nsnc2c1NC1=NCCN1 [TIZANIDINE HYDROCHLORIDE]"
  group: "rule met"
- molecule: "CN1CCN(c2nc3cc(C(F)(F)F)ccc3n3cccc23)CC1.O=C(O)/C=C\\C(=O)O.O=C(O)/C=C\\C(=O)O"
  group: "rule met"
- molecule: "CC[C@H]1OC(=O)[C@H](C)[C@@H](O[C@H]2C[C@@](C)(OC)[C@@H](O)[C@H](C)O2)[C@H](C)[C@@H](O[C@@H]2O[C@H](C)C[C@H](N(C)C)[C@H]2O)[C@@]2(C)CC(C)=C(O2)[C@H](C)[C@@H](O)[C@]1(C)O"
  group: "rule not met"

Next:
Exercise: Item CN1CCN2c3ncccc3Cc3ccccc3C2C1 (stereo not drawn) with Population Healthy Nuclei (%) of 70% or above?
Key: rule not met

----------
# System: U2OS
# assay-info: Multiplex assay against U2OS
# Type: toxicity, cell-based
# settings: human, 24 h, 10 µM, compound concentration 10 uM, replicate 1
Class met: Population Healthy Nuclei (%) at least 60%. Class not met: Population Healthy Nuclei (%) below 60%.

Illustrative cases are given below, each with its answer.
- molecule: "CSCC[C@H](NC=O)C(=O)N[C@@H](CC(C)C)C(=O)N[C@@H](Cc1ccccc1)C(=O)O"
  group: "met"
- molecule: "CN1CCN2c3ncccc3Cc3ccccc3C2C1 (stereo not given)"
  group: "met"
- molecule: "C[C@H](NC(=O)c1c(C(F)F)nn(C)c1Oc1cccc(C(F)(F)F)c1)c1ccc(C(=O)O)cc1"
  group: "met"

Exercise: State whether the measured Population Healthy Nuclei (%) reaches 60%, counting equality as reaching it, for `Cc1ccc(/C(=C\CN2CCCC2)c2ccccn2)cc1`
Key: met

Exercise: Exam item: decide whether the reported Population Healthy Nuclei (%) for `CC(=O)NCCc1c(Cc2ccccc2)[nH]c2ccccc12` is at least 60%.
Key: met

Exercise: Does the molecule `COc1cc(C(=O)N(CCCc2ccccc2)Cc2ccc(CC(=O)O)cc2)cc(OC)c1C` have recorded Population Healthy Nuclei (%) that is 60% or more?
Key: met

Exercise: Does Population Healthy Nuclei (%) meet or surpass 60% for `Oc1c(CN2CCN(c3ccccn3)CC2)cc(Cl)c2cccnc12` ?
Key: met
